Test system: T-47D breast
Assay: NCI-60 one-dose screen, 48 h
Conditions: 10 µM unless noted
Experimental: Growth inhibition of the T-47D human tumor cell line is measured as a screen for anti-cancer activity. Cells are grown in 96 well plates and exposed to the test compound for 48 hours. Compounds are tested at a single concentration, which is 10^-5 M for most compounds. The reported endpoint is percent growth (GI% or GIPRCNT), where numbers from 0 - 100% represent growth inhibition, and numbers from -100% - 0 represent cell death. For example, a value of 40 represents 60% growth inhibition. […]
The panel holds about 83,000 compounds, 20% with a hit somewhere; the sample as a whole holds those more often. Calls of active or inactive are those of the source. Rule for the calls: active = growth percent below 10; inactive = the rest.
In this exercise, the only acceptable responses are 1 for active, 0 for inactive

Data request: Please indicate how the test categorized C=C1NC(=O)C(C(C)CC)NC(=O)C2CSCC(NC(=O)CCC(=O)O)C(=O)NC(Cc3ccccc3)C(=O)NC(C)C(=O)NC(CC(C)CC)C(=O)NC(C(=O)NC(Cc3ccccc3)C(=O)N3CCCC3C(=O)N2)C(C)OC(=O)C(CO)NC(=O)C(C(O)COC)N(C)C(=O)C(C(C)C)NC(=O)C(CC(C)CC)NC1=O (centres undefined) .
Data returned: 0

Data request: Please indicate how the test categorized `O=C1C2=C(C(=O)c3c(O)ccc(O)c31)N(c1ccc(N3CCOCC3)nc1)Cc1ccccc1O2` .
Data returned: 1

Data request: Please indicate how the test categorized `O=C(Cc1ccc(Nc2ccnc(C(F)(F)F)c2)cc1)N/N=C/c1ccccc1O` .
Data returned: 0

Data request: Please indicate how the test categorized `CC1=C(O)C(=O)C(c2c(C)cc(C)c(Br)c2C)=C(O)C1=O` .
Data returned: 0

Data request: Please indicate how the test categorized CC(C)CC(NC(=O)OCC1c2ccccc2-c2ccccc21)C(=O)O (centres undefined) .
Data returned: 0

Data request: Please indicate how the test categorized `CC[C@H](Nc1nc(N)nc(C2CC2)c1C#N)c1nc2cccc(NCc3ccc(C(=O)NO)cc3)c2c(=O)n1-c1ccccc1` .
Data returned: 1

Data request: Please indicate how the test categorized `COc1cccc(NC(=O)[C@H](C(C)C)n2c(=O)[nH]c3ccccc3c2=O)c1` .
Data returned: 0

Data request: Please indicate how the test categorized `CCSc1ccc([C@@H]2[C@@H](N)C(=O)N2c2cc(OC)c(OC)c(OC)c2)cc1` .
Data returned: 0

Data request: Please indicate how the test categorized CC(COC(=O)c1ccccc1)N1CC2CCC(C1)O2 (centres undefined) .
Data returned: 0
